Molecular target: TAAR1 (Mus musculus, UniProt Q923Y8)
Construct: expressed in transfected cells; host or cells: HEK293 (ATCC #CRL-1573), stably transfected with pIRESneo2 expression plasmid
Sequence (Q923Y8 whole entry): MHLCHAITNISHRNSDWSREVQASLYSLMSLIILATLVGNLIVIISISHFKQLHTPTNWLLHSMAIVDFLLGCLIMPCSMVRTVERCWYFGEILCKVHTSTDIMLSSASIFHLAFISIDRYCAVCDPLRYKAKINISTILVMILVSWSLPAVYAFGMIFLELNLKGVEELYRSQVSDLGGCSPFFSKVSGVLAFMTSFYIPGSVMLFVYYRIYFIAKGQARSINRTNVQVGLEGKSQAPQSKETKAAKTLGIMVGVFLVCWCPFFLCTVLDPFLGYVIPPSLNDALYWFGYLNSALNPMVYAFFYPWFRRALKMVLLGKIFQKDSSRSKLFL
Experiment: Radioligand binding on membranes of HEK293 cells stably expressing TAAR1
Conditions: radioligand [3H]-rac-2-(1,2,3,4-tetrahydro-1-naphthyl)-2-imidazoline at 60 nM, 4° C., 30 min
measurementKind: Ki (µM)
Provide only the numeric value, understood in µM.

For reference, reported Ki for CCN(C[C@@H]1CCCN1)c1cccc(Oc2ccccc2)c1 [Example 4] stands at 0.0172

Item: Clc1ccc(N(Cc2ccccc2)C[C@@H]2CCN2)cc1 [Example 23] | Ki: 0.0107

Entry CCN(C[C@@H]1CCCN1)c1ccc(Cl)cc1 [Example 11] , Ki reported as 0.0131

Let us examine a further case.
In plain terms, CCN(C[C@H]1CCCN1)c1ccc(Cl)cc1 [Example 16] has a documented Ki of 0.0056
